Tested on: SK-GT-4 (Esophageal Adenocarcinoma)
Test: combination Emax (second highest fraction inhibited in the dose matrix, 72 h); higher = more inhibition; extreme values may be limits of the assay
Reported combination Emax values for the following molecules.

CC1(C)CCC(CN2CCN(c3ccc(C(=O)NS(=O)(=O)c4ccc(NCC5CCOCC5)c([N+](=O)[O-])c4)c(Oc4cnc5[nH]ccc5c4)c3)CC2)=C(c2ccc(Cl)cc2)C1 [Venetoclax] + C[C@@H](Nc1cc(F)cc(F)c1)c1cc(C(=O)N(C)C)cc2c(=O)cc(N3CCOCC3)oc12 [AZD8186] (first compound max 1 µM, 7x7, partner max 3 µM); 0.229

Now let's try a different one.
# query: combination Emax of entry CC1(C)CCC(CN2CCN(c3ccc(C(=O)NS(=O)(=O)c4ccc(NCC5CCOCC5)c([N+](=O)[O-])c4)c(Oc4cnc5[nH]ccc5c4)c3)CC2)=C(c2ccc(Cl)cc2)C1 [Venetoclax] + CN(C)CCCOc1ccc(-c2ccc3ncc4c(c3c2)n(C2CCOCC2)c(=O)n4C)cn1 [AZD0156] (first compound max 1 µM, 7x7, partner max 1 µM)
0.392

----------
Test system: CW-2 (Colorectal Carcinoma);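 further: after 72 h of two-drug dosing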
Test: Bliss excess, mean over the matrix (fraction); higher = more synergy
Reported Bliss excess values for the following molecules.
No unit in the answer, please; the number alone is enough.

CC1(C)CCC(CN2CCN(c3ccc(C(=O)NS(=O)(=O)c4ccc(NCC5CCOCC5)c([N+](=O)[O-])c4)c(Oc4cnc5[nH]ccc5c4)c3)CC2)=C(c2ccc(Cl)cc2)C1 [Venetoclax] + COc1cc(Nc2ncc3c(n2)-c2ccc(Cl)cc2C(c2c(F)cccc2OC)=NC3)ccc1C(=O)O [Alisertib] (first compound max 1 µM, 7x7, partner max 10 µM); -0.0094
NC1(C(=O)N[C@@H](CCO)c2ccc(Cl)cc2)CCN(c2ncnc3[nH]ccc23)CC1 [Capivasertib] + CC(C)n1c(=O)n(C)c2cnc3cc(F)c(-c4ccc(OCCCN5CCCCC5)nc4)cc3c21 [AZD1390] (first compound max 10 µM, 7x7, partner max 0.3 µM); -0.0469
Cc1cc2ncnn2cc1Nc1ncc2c(n1)n(C1CCOCC1)c(=O)n2C [AZD7648] + C=CCn1c(=O)c2cnc(Nc3ccc(N4CCN(C)CC4)cc3)nc2n1-c1cccc(C(C)(C)O)n1 [AZD1775] (first compound max 10 µM, partner max 1 µM); 0.0419

# query: Bliss excess of entry CC(=O)c1c(C)c2cnc(Nc3ccc(N4CCNCC4)cn3)nc2n(C2CCCC2)c1=O [Palbociclib] + CC1(C)CCC(CN2CCN(c3ccc(C(=O)NS(=O)(=O)c4ccc(NCC5CCOCC5)c([N+](=O)[O-])c4)c(Oc4cnc5[nH]ccc5c4)c3)CC2)=C(c2ccc(Cl)cc2)C1 [Venetoclax] (first compound max 10 µM, 7x7, partner max 1 µM)
0.0067

# query: Bliss excess of entry C=CCn1c(=O)c2cnc(Nc3ccc(N4CCN(C)CC4)cc3)nc2n1-c1cccc(C(C)(C)O)n1 [AZD1775] + C1CN(CCC1(C(=O)N[C@@H](CCO)C2=CC=C(C=C2)Cl)N)C3=NC=NC4=C3C=CN4 [Capivasertib] (first compound max 3 µM, partner max 3 µM)
-0.0487

# query: Bliss excess of entry CC1(C)CCC(CN2CCN(c3ccc(C(=O)NS(=O)(=O)c4ccc(NCC5CCOCC5)c([N+](=O)[O-])c4)c(Oc4cnc5[nH]ccc5c4)c3)CC2)=C(c2ccc(Cl)cc2)C1 [Venetoclax] + CS(=O)(=O)CCNCc1ccc(-c2ccc3ncnc(Nc4ccc(OCc5cccc(F)c5)c(Cl)c4)c3c2)o1 [Lapatinib] (first compound max 1 µM, 7x7, partner max 10 µM)
-0.0116

# query: Bliss excess of entry C=CCn1c(=O)c2cnc(Nc3ccc(N4CCN(C)CC4)cc3)nc2n1-c1cccc(C(C)(C)O)n1 [AZD1775] + C[C@@H]1COCCN1C2=NC(=NC(=C2)C3(CC3)[S@](=N)(=O)C)C4=C5C=CNC5=NC=C4 [AZD6738] (first compound max 1 µM, partner max 10 µM)
0.0554
